Molecular target: T1, mature recombinant human GDF-15 H202D variant with an N-terminal Flag and His tag, biotinylated (human, UniProt Q99988 197-308, chemically biotinylated with EZ link Sulfo-NHS-LC-Biotin, sites not stated)
T1 construct: also called Human H202D; not shown: N-terminal Flag and His tags
T1 chain: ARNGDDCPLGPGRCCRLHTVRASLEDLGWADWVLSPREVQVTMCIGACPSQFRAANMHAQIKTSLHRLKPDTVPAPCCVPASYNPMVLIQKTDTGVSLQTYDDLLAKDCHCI
Assay: SPR Biacore 8K, 25 C, biotinylated GDF-15 on streptavidin C1 chip, Fab as analyte
Below, each of the binders is paired with its reported Kd value.
Enter your answer as a number in nM; do not include the unit.

Below, 2 binders whose answers are already recorded.
- AB1520085 Fab (Fab, V domains shown, Fab of the anti-mouse GDF-15 mouse IgG1, expressed as in Spooner et al. 2015) VH: QVQLQQPGAELVMPGASVKMSCKASGYTFTDYWMHWVKQRPGQGLEWIGVIDTSESYTSYNQKFKGKATLTVDESSSTAYMQLSSLTSEDSAVYFCARGGTTVVLDYWGQGTTLTVSS VL: DIVMTQSQKFMSTSVGDRVSVTCKASQNVGTAVAWYQKKPGQSPKALIYSASTRYTGVPDRFTGSGSGTDFTLTISNVQSEDLAEYFCQQYSSSPWTFGGGTKLELK: 1.63
- AB1170241 Fab (Fab, V domains shown, Fab of the humanized antibody, expressed as in Spooner et al. 2015) VH: QVQLVQSGSELKKPGASVKVSCKASGYTFTDYNMDWIRQSPGKGLEWIGDINPNQGGTFYNQKFKDRATLTVDKSTSTAYMELRSLRSDDTAVYYCAREEKLYFGLMDYWGQGTTVTVSS VL: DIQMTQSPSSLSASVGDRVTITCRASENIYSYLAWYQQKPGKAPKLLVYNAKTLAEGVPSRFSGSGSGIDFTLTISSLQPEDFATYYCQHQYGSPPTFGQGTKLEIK: 0.156

Continue with the binder presented below.
Ask: Could you share which Kd value was measured for AB1170245 Fab (Fab, V domains shown, Fab of the humanized antibody, expressed as in Spooner et al. 2015) VH: EVQLVESGGGLVKPGGSLRLSCAASGFTFSSYAMSWVRQAPGKGLEWVAYISSGGDYIYYADTVKGRFTISRDNSKNTLYLQMNSLKTEDTAVYYCTRALVDNAYFDYWGQGTTVTVSS VL: DIVLTQSPDSLAVSLGERATINCRASKSVSTSSYSYMHWYQQKPGQPPKLLIKYASYLEFGVPSRFSGSGSGTDFTLTISSLQPEDVATYYCQHSREFPWTFGGGTKVEIK ?
Result: 10.5
